The reported numbers originate from PubChem BioAssay (NCI).

- Test system: TK-10 renal
- method.summary: NCI tumour cell line growth inhibition, 48 h
measured.property: GI50

Worked cases, GI50 given:
{"molecule": "CC(=Nc1ccccc1)C1=C(O)C(Cc2ccc(O)cc2)NC1=O (stereo not drawn)", "target": "TK-10 renal", "assay.result": "252 nM"}
{"molecule": "O=C1CC(=O)N(C(=O)c2nn(-c3ccc(Cl)cc3)cc2O)N1", "target": "TK-10 renal", "assay.result": "350 nM"}

**Q:** Report GI50 for COc1ccc(/C(COc2ccc3c(=O)c(-c4ccccc4)coc3c2)=N\O)cc1
**A:** 988 nM

###

- Tested on: SK-MEL-5 melanoma
- method.summary: NCI tumour cell line growth inhibition, 48 h
measured.property: TGI

Worked cases, TGI given:
{"compound": "CCN(CC)CCCNC(=O)C1COc2cc(-c3cc(=O)c4ccccc4o3)ccc2O1 (centres undefined)", "target": "SK-MEL-5 melanoma", "assay.result": "37.6 µM"}
{"compound": "O=C(c1c(F)c(F)c(F)c(F)c1F)N1CCN(C(=O)c2c(F)c(F)c(F)c(F)c2F)C1=S", "target": "SK-MEL-5 melanoma", "assay.result": "19.6 µM"}
{"compound": "COc1cccc2c1CCc1cc3c(N)nc(N)nc3nc1-2", "target": "SK-MEL-5 melanoma", "assay.result": "10.2 µM"}
{"compound": "CN(C)CC1CN=C(N)O1 (centres undefined)", "target": "SK-MEL-5 melanoma", "assay.result": "> 100 µM"}
{"compound": "CCN(CC)c1ccc2cc(C(N)=S)c(=N)oc2c1", "target": "SK-MEL-5 melanoma", "assay.result": "> 100 µM"}
{"compound": "COc1cc(N2CCC(N3CCN(C)CC3)CC2)ccc1Nc1ncnc(Nc2ccccc2S(=O)(=O)C(C)C)n1", "target": "SK-MEL-5 melanoma", "assay.result": "18.1 µM"}
{"compound": "COc1ccc(C2SCC(=O)N2NC(=O)c2ccncc2)cc1F (centres undefined)", "target": "SK-MEL-5 melanoma", "assay.result": "> 100 µM"}
{"compound": "Cc1cccc2c1C(=O)[C@](C)([C@]1(C)Nc3cccc(C)c3C1=O)N2", "target": "SK-MEL-5 melanoma", "assay.result": "> 100 µM"}
{"compound": "CCO/C=N\\c1c(C#N)c(-c2ccc(Cl)cc2)cn1-c1ccc(C)cc1", "target": "SK-MEL-5 melanoma", "assay.result": "> 100 µM"}
{"compound": "COc1ccc(/C(COc2ccc3c(=O)c(-c4ccccc4)coc3c2)=N\\O)cc1", "target": "SK-MEL-5 melanoma", "assay.result": "4.74 µM"}

Kindly review the next compound as well.
**Q:** Report TGI for CCC(=O)Nc1ccccc1C#C/C=C\C#Cc1ccccc1SC
**A:** 17.4 µM
